Each recorded value in this set is attributed to the NIST ThermoML archive (doi:10.1021/acs.jced.5b00077).

conditions: 298.15 K, Ring tensiometer
Quantity: surface tension liquid-gas (mN/m)
Supply the numeric figure in mN/m, leaving out any unit text.

Compound: CCC[NH3+].O=C[O-] [propylammonium formate]
surface tension liquid-gas / mN/m: 37.4

Ask: What measured surface tension liquid-gas goes with O=C[O-].[NH3+]CCCO [3-hydroxypropylammonium formate] ?
Reply: 56.4

Ask: What measured surface tension liquid-gas goes with O=C([O-])C(F)(F)F.[NH3+]CCCO [3-hydroxypropylammonium trifluoroacetate] ?
Reply: 37.8

Ask: What measured surface tension liquid-gas goes with CC(=O)[O-].[NH3+]CCCO [3-hydroxypropylammonium acetate] ?
Reply: 47.5

Ask: What measured surface tension liquid-gas goes with CC(=O)[O-].CCC[NH3+] [propylammonium acetate] ?
Reply: 33.1

###

conditions: 313.15 K; 101.33 kPa; Liquid; Alternating current cell with electrodes
Listed next: entries and their corresponding log10 of electrical conductivity.
Record value = log10 of electrical conductivity given in S/m.

Known results for compounds:
Compound: CC(=O)[O-].[NH3+]CCCO [3-hydroxypropylammonium acetate]
Reading: -1.70
//
Compound: O=C([O-])C(F)(F)F.[NH3+]CCCO [3-hydroxypropylammonium trifluoroacetate]
Reading: -0.92
//
Compound: CC(=O)[O-].CCC[NH3+] [propylammonium acetate]
Reading: -0.85
//
Compound: CCC[NH3+].O=C[O-] [propylammonium formate]
Reading: -0.23

Could you now look at the following compound, please?
Ask: What measured log10 of electrical conductivity goes with O=C[O-].[NH3+]CCCO [3-hydroxypropylammonium formate] ?
Reply: -0.59

###

test: refractive index (Na D-line) (dimensionless); conditions: 313.15 K; 101.33 kPa; Liquid; Standard Abbe refractometry
Listed next: entries and their corresponding refractive index.
The response must contain the number and no unit.

Known results for compounds:
Compound: CC(=O)[O-].CCC[NH3+] [propylammonium acetate]
refractive index: 1.4328
//
Compound: O=C[O-].[NH3+]CCCO [3-hydroxypropylammonium formate]
refractive index: 1.4632
//
Compound: CC(=O)[O-].[NH3+]CCCO [3-hydroxypropylammonium acetate]
refractive index: 1.4616
//
Compound: CCC[NH3+].O=C[O-] [propylammonium formate]
refractive index: 1.4341

Ask: What measured refractive index goes with O=C([O-])C(F)(F)F.[NH3+]CCCO [3-hydroxypropylammonium trifluoroacetate] ?
Reply: 1.4067

###

details: 298.15 K; 101.33 kPa; Liquid; Alternating current cell with electrodes
Please assign False whenever electrical conductivity is at or above 0.06 S/m, and True whenever it is below.

Molecule: CCC[NH3+].O=C[O-] [propylammonium formate]
Assigned Class: False
--
Molecule: O=C([O-])C(F)(F)F.[NH3+]CCCO [3-hydroxypropylammonium trifluoroacetate]
Assigned Class: True
--
Molecule: CC(=O)[O-].[NH3+]CCCO [3-hydroxypropylammonium acetate]
Assigned Class: True

Moving on to another molecule below.
Ask: State whether 0.06 S/m exceeds electrical conductivity recorded for O=C[O-].[NH3+]CCCO [3-hydroxypropylammonium formate] .
Reply: False

###

Listed next: entries and their corresponding refractive index.
assay: refractive index (Na D-line) (dimensionless); conditions: 308.15 K; 101.33 kPa; Liquid; Standard Abbe refractometry
The response must contain the number and no unit.

Known results for molecules:
Molecule: CC(=O)[O-].CCC[NH3+] [propylammonium acetate]
refractive index: 1.4341
//
Molecule: O=C([O-])C(F)(F)F.[NH3+]CCCO [3-hydroxypropylammonium trifluoroacetate]
refractive index: 1.4078
//
Molecule: CC(=O)[O-].[NH3+]CCCO [3-hydroxypropylammonium acetate]
refractive index: 1.4628
//
Molecule: O=C[O-].[NH3+]CCCO [3-hydroxypropylammonium formate]
refractive index: 1.4644

Could you now look at the following molecule, please?
Ask: What measured refractive index goes with CCC[NH3+].O=C[O-] [propylammonium formate] ?
Reply: 1.4356

###

Listed next: entries and their corresponding refractive index.
experiment: refractive index (Na D-line) (dimensionless); conditions: 333.15 K; 101.33 kPa; Liquid; Standard Abbe refractometry
The response must contain the number and no unit.

Molecule: CC(=O)[O-].CCC[NH3+] [propylammonium acetate]
refractive index: 1.4273

Molecule: O=C[O-].[NH3+]CCCO [3-hydroxypropylammonium formate]
refractive index: 1.4586

Molecule: CCC[NH3+].O=C[O-] [propylammonium formate]
refractive index: 1.428

Molecule: O=C([O-])C(F)(F)F.[NH3+]CCCO [3-hydroxypropylammonium trifluoroacetate]
refractive index: 1.402

Could you now look at the following molecule, please?
Ask: What measured refractive index goes with CC(=O)[O-].[NH3+]CCCO [3-hydroxypropylammonium acetate] ?
Reply: 1.457

###

Listed next: entries and their corresponding refractive index.
assay: refractive index (Na D-line) (dimensionless); details: 323.15 K; 101.33 kPa; Liquid; Standard Abbe refractometry
± gives the expanded uncertainty stated by the source.

Known results for compounds:
Compound: CC(=O)[O-].[NH3+]CCCO [3-hydroxypropylammonium acetate]
refractive index: 1.4593 ± 0.0012
//
Compound: O=C[O-].[NH3+]CCCO [3-hydroxypropylammonium formate]
refractive index: 1.461 ± 0.0012
//
Compound: CC(=O)[O-].CCC[NH3+] [propylammonium acetate]
refractive index: 1.4301 ± 0.0012
//
Compound: O=C([O-])C(F)(F)F.[NH3+]CCCO [3-hydroxypropylammonium trifluoroacetate]
refractive index: 1.4044 ± 0.0012

Ask: What measured refractive index goes with CCC[NH3+].O=C[O-] [propylammonium formate] ?
Reply: 1.431 ± 0.0012

###

conditions: 308.15 K; 101.33 kPa; Liquid; Alternating current cell with electrodes
Quantity: electrical conductivity (S/m)
Supply the numeric figure in S/m, leaving out any unit text.

Ask: What measured electrical conductivity goes with O=C([O-])C(F)(F)F.[NH3+]CCCO [3-hydroxypropylammonium trifluoroacetate] ?
Reply: 0.09

Ask: What measured electrical conductivity goes with O=C[O-].[NH3+]CCCO [3-hydroxypropylammonium formate] ?
Reply: 0.21

###

conditions: 293.15 K, Ring tensiometer
We use 40 mN/m as the dividing line for surface tension liquid-gas: on or above the line is satisfied, below is not satisfied.

Here's what some known entries look like.
Molecule: CC(=O)[O-].CCC[NH3+] [propylammonium acetate]
Assigned Class: not satisfied
//
Molecule: CC(=O)[O-].[NH3+]CCCO [3-hydroxypropylammonium acetate]
Assigned Class: satisfied
//
Molecule: O=C([O-])C(F)(F)F.[NH3+]CCCO [3-hydroxypropylammonium trifluoroacetate]
Assigned Class: not satisfied
//
Molecule: CCC[NH3+].O=C[O-] [propylammonium formate]
Assigned Class: not satisfied

Moving on to another molecule below.
Ask: Reported surface tension liquid-gas reaches at least 40 mN/m for O=C[O-].[NH3+]CCCO [3-hydroxypropylammonium formate] ?
Reply: satisfied

###

conditions: 318.15 K; 101.33 kPa; Liquid; Alternating current cell with electrodes
Listed next: entries and their corresponding log10 electrical conductivity.
Record value = log10 of electrical conductivity given in S/m.

Known results for molecules:
Molecule: CC(=O)[O-].CCC[NH3+] [propylammonium acetate]
log10 electrical conductivity: -0.77
--
Molecule: CCC[NH3+].O=C[O-] [propylammonium formate]
log10 electrical conductivity: -0.17
--
Molecule: O=C[O-].[NH3+]CCCO [3-hydroxypropylammonium formate]
log10 electrical conductivity: -0.52
--
Molecule: O=C([O-])C(F)(F)F.[NH3+]CCCO [3-hydroxypropylammonium trifluoroacetate]
log10 electrical conductivity: -0.80

Could you now look at the following molecule, please?
Ask: What measured log10 electrical conductivity goes with CC(=O)[O-].[NH3+]CCCO [3-hydroxypropylammonium acetate] ?
Reply: -1.52

###

assay: refractive index (Na D-line) (dimensionless); conditions: 318.15 K; 101.33 kPa; Liquid; Standard Abbe refractometry
Numbers after ± are expanded uncertainties.
Listed next: entries and their corresponding refractive index.

Known results for molecules:
Molecule: CC(=O)[O-].CCC[NH3+] [propylammonium acetate]
Quantity: refractive index
Reading: 1.4313 ± 0.0012
//
Molecule: CCC[NH3+].O=C[O-] [propylammonium formate]
Quantity: refractive index
Reading: 1.4326 ± 0.0012
//
Molecule: O=C[O-].[NH3+]CCCO [3-hydroxypropylammonium formate]
Quantity: refractive index
Reading: 1.4621 ± 0.0012
//
Molecule: CC(=O)[O-].[NH3+]CCCO [3-hydroxypropylammonium acetate]
Quantity: refractive index
Reading: 1.4605 ± 0.0012

Could you now look at the following molecule, please?
Ask: What measured refractive index goes with O=C([O-])C(F)(F)F.[NH3+]CCCO [3-hydroxypropylammonium trifluoroacetate] ?
Reply: 1.4055 ± 0.0012

###

conditions: 308.15 K, Ring tensiometer
Please assign rule not met whenever surface tension liquid-gas is at or above 40 mN/m, and rule met whenever it is below.

Here's what some known entries look like.
Molecule: O=C([O-])C(F)(F)F.[NH3+]CCCO [3-hydroxypropylammonium trifluoroacetate]
Assigned Class: rule met
--
Molecule: CCC[NH3+].O=C[O-] [propylammonium formate]
Assigned Class: rule met
--
Molecule: CC(=O)[O-].CCC[NH3+] [propylammonium acetate]
Assigned Class: rule met
--
Molecule: O=C[O-].[NH3+]CCCO [3-hydroxypropylammonium formate]
Assigned Class: rule not met

Moving on to another molecule below.
Ask: State whether 40 mN/m exceeds surface tension liquid-gas recorded for CC(=O)[O-].[NH3+]CCCO [3-hydroxypropylammonium acetate] .
Reply: rule not met
